- TARGET OR TEST SYSTEM: T1, rabbit ClC-2 (rabbit, UniProt P51789 1-898)
- T1 construct: whole, on cells; Voltage-gated chloride channel recorded in whole oocytes (TEVC) or in excised inside-out patches; also called ClC-2 channel
- T1 sequence (looked up): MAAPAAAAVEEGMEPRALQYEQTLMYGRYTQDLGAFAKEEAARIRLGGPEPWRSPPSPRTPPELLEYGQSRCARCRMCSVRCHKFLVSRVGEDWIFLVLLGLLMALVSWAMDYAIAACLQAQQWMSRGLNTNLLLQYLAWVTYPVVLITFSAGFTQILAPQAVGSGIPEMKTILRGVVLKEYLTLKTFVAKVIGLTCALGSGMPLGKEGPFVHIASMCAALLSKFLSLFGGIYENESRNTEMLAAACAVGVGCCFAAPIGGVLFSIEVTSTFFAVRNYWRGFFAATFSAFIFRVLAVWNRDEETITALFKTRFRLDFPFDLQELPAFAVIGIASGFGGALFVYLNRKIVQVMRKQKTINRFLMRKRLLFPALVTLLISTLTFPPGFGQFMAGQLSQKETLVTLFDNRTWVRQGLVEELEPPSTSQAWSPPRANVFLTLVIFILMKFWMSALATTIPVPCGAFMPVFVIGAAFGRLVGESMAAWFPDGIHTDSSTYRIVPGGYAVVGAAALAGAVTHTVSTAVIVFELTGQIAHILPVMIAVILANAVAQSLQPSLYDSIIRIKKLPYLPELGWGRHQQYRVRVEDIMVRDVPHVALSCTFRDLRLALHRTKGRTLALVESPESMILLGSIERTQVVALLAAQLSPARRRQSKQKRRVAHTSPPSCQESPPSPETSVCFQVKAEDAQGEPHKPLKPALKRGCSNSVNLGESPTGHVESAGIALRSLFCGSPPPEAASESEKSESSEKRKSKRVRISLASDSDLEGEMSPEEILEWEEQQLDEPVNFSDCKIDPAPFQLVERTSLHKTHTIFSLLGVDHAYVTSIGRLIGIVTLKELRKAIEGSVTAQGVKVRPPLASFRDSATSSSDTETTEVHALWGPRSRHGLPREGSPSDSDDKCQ
- ASSAY PROTOCOL: dose-response of inhibition of ClC-2 window current, inside-out multi-channel patches, synthetic toxin backfilled in the pipette, VM=-100 mV (FIG. 3B)
No end group written: not given here.
ASSAY READOUT: Kd (nM)
Give bare numbers, in nM.

Enquiry: What measured Kd goes with VSCEDCPDHCSTQKARAKCDNDKCVCEPI (disulfide (positions not given here), also called Leiuropeptide II; LPII) [GaTx2] ?
Return: 0.012
